Listing: composite z-score of selected compounds
test: small-molecule microarray binders of probe aShh, primary screen, biochemical, biotinylated probe, 635/667 nm fluorescence (AID 1114); conditions: higher = more signal;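 also: probe is biotin-labelled aShh protein from a stem cell growth factor screen; measures binding of labelled protein to compounds printed on the slide; score merges feature fluorescence at 667 nm with signal-to-noise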
Attribute measured: composite z-score

[[record]]
compound = "C=CCNC(=O)[C@H]1[C@@H]2C(=O)O[C@@H](c3ccccc3)[C@@H](c3ccccc3)N2[C@@H](c2ccccc2OCCO)[C@]12C(=O)N(C(=O)OCCOC)c1ccc(C#CCCO)cc12"
value_reported = 0.715

[[record]]
compound = "COc1ccc([Si](C)(C)[C@@H]2[C@@H](CCn3cc([C@H](O)c4ccccc4)nn3)O[C@]3(C(=O)N(C)c4c(Br)cc(C)cc43)[C@H]2C)cc1"
value_reported = -0.0991

[[record]]
compound = "COCCCNC(=O)[C@@]1(CCS(=O)(=O)c2ccccc2)N=C(c2ccc(OCCCO)cc2)O[C@H]1c1ccccc1CN=[N+]=[N-]"
value_reported = 0.81

[[record]]
compound = "COC(=O)C1=CC(c2ccc(CO)cc2)=CC(c2cccs2)N(C)C=C1C(=O)OC (centres undefined)"
value_reported = 0.138

[[record]]
compound = "C[N+](C)(C)CCCCNC(=O)[C@@H]1C[C@@H]2C(=O)NCC(=O)N2[C@@H]1c1cccc(OCCO)c1"
value_reported = 0.0756

[[record]]
compound = "CO[C@H]1O[C@H](CO)[C@@H](OC(=O)Nc2ccccc2)[C@H](OC(=O)Nc2ccccc2-c2ccccc2)[C@@H]1OC(=O)Nc1ccccc1-c1ccccc1"
value_reported = 1.85

[[record]]
compound = "COC(=O)c1c(CC[C@@H](CO)NC(=O)Nc2ccc(OC)cc2)oc(C(=O)Cc2ccccc2)c1C(=O)OC"
value_reported = -0.138

[[record]]
compound = "COC(=O)c1c2oc(c1C(=O)OC)C(=O)N[C@@H](C(C)C)Cn1nncc1C1(CCCCC1)NC(=O)N[C@H](CO)CC2"
value_reported = 0.0899

[[record]]
compound = "COCCOC(=O)N1C(=O)[C@@]2(c3cc(C#CCCO)ccc31)[C@H](c1ccccc1OCCO)N1[C@H](c3ccccc3)[C@H](c3ccccc3)OC(=O)[C@H]1[C@@H]2C(=O)NC[C@H](O)c1ccccc1"
value_reported = 0.275

